System: Vero
Experiment: Cytotoxicity against african green monkey Vero cells assessed as cell viability after 48 hrs by neutral red assay
Assay type: cell-based
Measurement setup: chlorocebus sabaeus
I'd be grateful if you could share measured cytotoxic concentration for these entries.
Only the number, expressed in µM, is required.

# get_value(readout='cytotoxic concentration', item= O=C(NCCN1CCCCCC1)c1ccc2c(c1)N(Cc1cccc(Cl)c1)C(=O)c1ccccc1[S+]2[O-] (racemic) )
100

Please give the measured cytotoxic concentration for this molecule: CCC1CCCCN1CCCNC(=O)c1ccc2c(c1)N(Cc1cccc(Cl)c1)C(=O)c1ccccc1[S+]2[O-] (racemic)
100

Quick check: cytotoxic concentration of `O=C(NCCCN1CCCC1)c1ccc2c(c1)N(Cc1cccc(Cl)c1)C(=O)c1ccccc1S2` ?
50

Fill in: cytotoxic concentration of CN(CCCNC(=O)c1ccc2c(c1)N(Cc1cccc(Cl)c1)C(=O)c1ccccc1[S+]2[O-])C1CCCCC1 (racemic) is ___
50

cytotoxic concentration for CC1CCCN(CCCNC(=O)c2ccc3c(c2)N(Cc2cccc(Cl)c2)C(=O)c2ccccc2[S+]3[O-])C1 (racemic) ?
100

Given O=C(NCCCN1CCCC1)c1ccc2c(c1)N(Cc1cccc(Cl)c1)C(=O)c1ccccc1[S+]2[O-] (racemic) , state its recorded cytotoxic concentration.
50
